experimental.details: Quantitative High-Throughput drug screen in 47 multiple myeloma cell lines against the NCATS MIPE library collection: U266_ATCC cell viability assay (AID 1919864); note: potency is the fitted concentration of half-maximal effect; nearly all actives have a fitted effect of over 35% in size
condition.set: U266 myeloma viability, CellTiter-Glo ATP luminescence, 48 h; series mostly up to 45.8 µM
Results filed as inconclusive are left out. Active and inactive are the calls of the source. Calls come from the whole dose curve; as a rule, active = well fitted cell-killing curve with a large enough effect; inconclusive = small, poorly fitted or top-dose-only effect, or effect the other way; inactive = no such curve, though single readings can be large or run the other way.
measured.parameter: Potency

{"compound": "Cc1[nH]c(C=C2C(=O)Nc3ccc(S(=O)(=O)Cc4c(Cl)cccc4Cl)cc32)c(C)c1C(=O)N1CCC[C@H]1CN1CCCC1", "meas.value": "23.5 µM (active)"}
{"compound": "COc1cccc(-c2cc(=O)c3ccccc3o2)c1N", "meas.value": "8.33 µM (active)"}
{"compound": "Cc1cc(OCCCc2c(C(=O)O)n(Cc3cccnc3)c3c(-c4c(COc5ccc(N6CCN([S+](C)(=O)[O-])CC6)cc5)nn(C)c4C)cccc23)cc(C)c1Cl", "meas.value": "3.32 µM (active)"}
{"compound": "C=C1C(=O)[C@@]23C(CC[C@@H]1[C@H]2O)[C@@]12CO[C@]3(O)[C@@H](O)[C@@H]1C(C)(C)CC[C@@H]2O (stereo partly drawn)", "meas.value": "8.33 µM (active)"}
{"compound": "CCCCCNC(=O)N1CCC(CN(Cc2ccc(Cl)cc2)Cc2ccc([N+](=O)[O-])s2)C1 (stereo not drawn)", "meas.value": "16.6 µM (active)"}
{"compound": "COc1ccc(Cc2ccc(NC(N)=O)cc2)cc1-c1cccc(Cl)c1", "meas.value": "8.33 µM (active)"}
{"compound": "Cc1c(O)cccc1C(=O)N[C@@H](CSc1ccccc1)[C@H](O)CN1C[C@H]2CCCC[C@@H]2C[C@@H]1C(=O)NC(C)(C)C", "meas.value": "18.7 µM (active)"}

----------
experimental.details: qHTS of pediatric cancer cell lines to identify multiple opportunities for drug repurposing: Primary screen for Saos-2 cells (AID 1347097); note: nearly all actives have a fitted effect of over 40% in size
condition.set: Saos-2 viability, CellTiter-Glo ATP luminescence, 48 h; series mostly up to 46 µM
Results filed as inconclusive are left out. Active and inactive are the calls of the source. The call rests on the fitted dose curve; in most records, active means well fitted cell-killing curve with a large enough effect; inconclusive means small, poorly fitted or top-dose-only effect; inactive means no such curve, though single readings can be large or run the other way.
Possible outcomes: active, inactive

{"compound": "CO[C@H]1C=CO[C@@]2(C)Oc3c(C)c(O)c4c(O)c(c5c(c4c3C2=O)NC2(CCN(CC(C)C)CC2)N=5)=NC(=O)C(C)=CC=C[C@H](C)[C@H](O)[C@@H](C)[C@@H](O)[C@@H](C)[C@H](OC(C)=O)[C@H]1C", "class": "inactive"}
{"compound": "COc1ccc(Cc2ccc(NC(N)=O)cc2)cc1-c1cccc(Cl)c1", "class": "inactive"}
{"compound": "CN(C)c1cc(NC(=O)CNC(C)(C)C)c(O)c2c1C[C@@H]1C[C@H]3[C@H](N(C)C)C(=O)C(C(N)=O)=C(O)[C@@]3(O)C(=O)C1=C2O", "class": "inactive"}
{"compound": "CC(C)C(=O)Nc1ncc(-c2cc(C(F)F)nn2-c2c(Cl)cccc2Cl)s1", "class": "active"}
{"compound": "CC(C)OC(=O)CCCC=CC[C@@H]1[C@H](C=C[C@@H](O)COc2cccc(C(F)(F)F)c2)[C@H](O)C[C@@H]1O", "class": "active"}
{"compound": "O=C(O)c1cc(-c2ccccc2)nc2ccccc12", "class": "inactive"}
{"compound": "NS(=O)(=O)c1ccc(NC2=CC(=O)c3ccccc3C2=O)cc1", "class": "active"}
{"compound": "C[C@]12CC[C@@H]3c4ccc(O)cc4CC[C@H]3[C@H]1C[C@@H](O)[C@H]2O", "class": "inactive"}
{"compound": "COc1cc(N2CCC(N3CCN(C)CC3)CC2)ccc1Nc1ncnc(Nc2ccccc2S(=O)(=O)C(C)C)n1", "class": "inactive"}
{"compound": "COc1ccc(C2CC(c3ccccc3)=NN2c2ccc(S(N)(=O)=O)cc2)cc1 (configuration not stated)", "class": "active"}
{"compound": "COc1ccc(-c2coc3cc(O)ccc3c2=O)cc1", "class": "inactive"}
{"compound": "C=C1C(=O)[C@@]23C(CC[C@@H]1[C@H]2O)[C@@]12CO[C@]3(O)[C@@H](O)[C@@H]1C(C)(C)CC[C@@H]2O (some centres not stated)", "class": "active"}
{"compound": "COc1cc2ncnc(-n3nc(-c4ccccn4)nc3N)c2cc1OC", "class": "active"}
{"compound": "O=C(O)CCc1nc(-c2ccccc2)c(-c2ccccc2)o1", "class": "inactive"}
{"compound": "CCCCCCCCCCCC1=C(O)C(=O)C=C(O)C1=O", "class": "active"}
{"compound": "Cc1c(O)cccc1C(=O)N[C@@H](CSc1ccccc1)[C@H](O)CN1C[C@H]2CCCC[C@@H]2C[C@@H]1C(=O)NC(C)(C)C", "class": "active"}
{"compound": "Clc1cc(Cl)cc(CNc2ncncc2-c2ccc3c(c2)OCO3)c1", "class": "active"}
{"compound": "CCC(=O)O[C@]1(C(=O)CO)CC[C@H]2[C@@H]3CCC4=CC(=O)CC[C@]4(C)[C@@H]3CC[C@@]21C", "class": "inactive"}
{"compound": "C[C@H](NC(=O)C(=O)Nc1ccccc1C(C)(C)C)C(=O)N[C@@H](CC(=O)O)C(=O)COc1c(F)c(F)cc(F)c1F", "class": "active"}
{"compound": "O=c1c(-c2ccc(O)cc2)coc2cc(O[C@@H]3O[C@H](CO)[C@H](O)[C@H](O)[C@H]3O)ccc12", "class": "inactive"}
{"compound": "CCn1cc(C(=O)O)c(=O)c2ccc(C)nc21", "class": "inactive"}
{"compound": "CC[C@H]1OC(=O)[C@H](C)C(=O)[C@H](C)[C@@H](O[C@H]2O[C@H](C)C[C@H](N(C)C)[C@@H]2O)[C@](C)(OC)C[C@@H](C)C(=O)[C@H](C)[C@H]2N(CCCCn3cnc(-c4cccnc4)c3)C(=O)O[C@]12C", "class": "inactive"}
{"compound": "CCOc1ccc(Nc2nc(-c3c(C)nc4ccccn34)cs2)cc1", "class": "inactive"}
{"compound": "O=C1NC(=O)C(=Cc2cccc(C(F)(F)F)c2)S1", "class": "inactive"}
{"compound": "CC(=O)Nc1ccc([C@H](C)C(=O)Nc2ncc(C(C)C)s2)cc1", "class": "active"}
{"compound": "O=C(NC1CCOCC1)c1ccc(-c2cc(-c3cn[nH]c3-c3ccccn3)ccn2)cc1", "class": "inactive"}
{"compound": "Cc1cccc(Nc2nc(-c3ccncc3)cs2)c1", "class": "inactive"}
